Attribution: the supplement of paper PMC11208160

experiment: recombinant UMI read abundance after kanamycin selection (control-corrected) (log10(CPM+1)); higher = more efficient recombination; extreme values may be limits of the assay; sequences stand for … in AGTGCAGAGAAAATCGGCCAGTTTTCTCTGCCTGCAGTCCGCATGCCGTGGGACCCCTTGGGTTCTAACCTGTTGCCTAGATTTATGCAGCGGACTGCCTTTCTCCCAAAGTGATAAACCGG…AGGTTGGTTTCACT; site = the 11-nt donor
value kind: recombinant UMI read abundance (log10)

ATGGAGTCATGGACCGGTTTTCCCGGTAATCCGTATTTGGA (site ATGGAGTCTTC)
2.86
AGAAGGGCATGGACCGGTTTTCCCGGTAATCCGTATTTGCT (site AGAAGGGCTAG)
2.64
TTGCCTTCATGGACCGGTTTTCCCGGTAATCCGTATTTGGT (site TAGCCTTCTAC)
0.0133
CTACTAGCATGGACCGGTTTTCCCGGTAATCCGTATTTGGA (site CTACTACCTTC)
0.00939
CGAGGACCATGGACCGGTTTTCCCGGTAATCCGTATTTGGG (site CGAGGACCTCA)
0.0034
GGAAATCCATGGACCGGTTTTCCCGGTAATCCGTATTTGGG (site GGAAATCCTCC)
0.00368
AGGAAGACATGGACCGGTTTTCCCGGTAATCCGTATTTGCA (site CGGAAGCCTTG)
0
TGTGGCTCATGGACCGGTTTTCCCGGTAATCCGTATTTGCT (site TGTGGCTCTAG)
1.33
CTAGGATCATGGACCGGTTTTCCCGGTAATCCGTATTTGAC (site CTAGTATCTGT)
1.35

---

experiment: recombinant UMI read abundance after kanamycin selection (control-corrected) (log10(CPM+1)); higher = more efficient recombination; extreme values may be limits of the assay; sequences stand for … in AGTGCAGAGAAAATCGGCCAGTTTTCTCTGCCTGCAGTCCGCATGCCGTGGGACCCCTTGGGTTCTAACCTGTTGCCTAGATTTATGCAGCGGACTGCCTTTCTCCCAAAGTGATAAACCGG…AGGTTGGTTTCACT; site = the 11-nt donor
Decide by recombinant UMI read abundance (log10): equal to or exceeding 0.5 means yes, less means no.

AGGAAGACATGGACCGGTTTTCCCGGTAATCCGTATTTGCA (site AGGACGACTTC)
no
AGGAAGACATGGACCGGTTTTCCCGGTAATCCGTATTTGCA (site GGGACGACTTG)
no
ACAATATCATGGACCGGTTTTCCCGGTAATCCGTATTTGCA (site ACAGTATCTTG)
yes
GGGACGTCATGGACCGGTTTTCCCGGTAATCCGTATTTGTT (site GGTACGTCTAA)
no
CGACTCTCATGGACCGGTTTTCCCGGTAATCCGTATTTGAC (site CGACTCTCTGT)
yes
CGTGAGGCATGGACCGGTTTTCCCGGTAATCCGTATTTGCC (site CGTGAGGCTGG)
yes
TCATTATCATGGACCGGTTTTCCCGGTAATCCGTATTTGCA (site TCATTATCTTG)
yes
AGGAAGACATGGACCGGTTTTCCCGGTAATCCGTATTTGTA (site AGGAAGACTTC)
yes
AATTAGGCATGGACCGGTTTTCCCGGTAATCCGTATTTGGA (site AATTATGCTTC)
no
TCAGACTCATGGACCGGTTTTCCCGGTAATCCGTATTTGCA (site TCACACTCTTG)
yes
GTGCATGCATGGACCGGTTTTCCCGGTAATCCGTATTTGCT (site GTGCATGCTAT)
yes
TCATAGTCATGGACCGGTTTTCCCGGTAATCCGTATTTGCA (site TCATAATCTTG)
yes
AAGAGGACATGGACCGGTTTTCCCGGTAATCCGTATTTGCA (site AGGAAGACTTG)
yes
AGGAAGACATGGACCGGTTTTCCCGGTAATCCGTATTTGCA (site AGGAAGGCTTG)
yes
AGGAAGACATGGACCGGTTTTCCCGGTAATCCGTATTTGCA (site CGGAACACTTG)
yes
TGGTTTCCATGGACCGGTTTTCCCGGTAATCCGTATTTGCA (site TGGTTTCCTTG)
no
CGTTCGGCATGGACCGGTTTTCCCGGTAATCCGTATTTGCT (site CGTTAGGCTAG)
no
GGGGTACCATGGACCGGTTTTCCCGGTAATCCGTATTTGCA (site GGGGCACCTTG)
no

---

test: recombinant UMI read abundance after kanamycin selection (control-corrected) (log10(CPM+1)); higher = more efficient recombination; extreme values may be limits of the assay; sequences stand for … in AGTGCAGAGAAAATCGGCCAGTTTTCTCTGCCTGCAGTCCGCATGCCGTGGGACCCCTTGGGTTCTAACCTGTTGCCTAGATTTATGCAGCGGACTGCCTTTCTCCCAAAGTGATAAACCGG…AGGTTGGTTTCACT; site = the 11-nt donor
Rule: recombinant UMI read abundance (log10) of 0.8 or more gives YES; anything lower gives NO.

AGTGCTGCATGGACCGGTTTTCCCGGTAATCCGTATTTGCA (site AGTGCTGCTTG)
YES
GAAACACCATGGACCGGTTTTCCCGGTAATCCGTATTTGTT (site GAAACACCTAA)
NO
CCCCACTCATGGACCGGTTTTCCCGGTAATCCGTATTTGTA (site CCCCACACTTA)
NO

---

assay: recombinant barcode read abundance after kanamycin selection (control-corrected) (log10(CPM+1)); higher = more efficient recombination; sequences stand for … in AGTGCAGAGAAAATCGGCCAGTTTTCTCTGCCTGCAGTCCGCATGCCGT…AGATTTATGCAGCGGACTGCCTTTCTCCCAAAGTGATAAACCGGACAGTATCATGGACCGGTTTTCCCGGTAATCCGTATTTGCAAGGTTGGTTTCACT; site = the 11-nt target
value kind: recombinant barcode read abundance (log10)

CTATGGACTTGGGTTCTAACCTGTTGCAC (site CTATGGACTCT)
0.242
AGGGAAGCTTGGGTTCTAACCTGTTGCCT (site AGGGAAGCTAG)
0.879
GAAAAGTCTTGGGTTCTAACCTGTTGCTG (site GAAAAGTCTCA)
1.28
TCCCGAGCTTGGGTTCTAACCTGTTGCCT (site TCCCGATCTAG)
0.119
AGTGCGCCTTGGGTTCTAACCTGTTGCTA (site AGTGCGCCTTA)
0.341
ACATGTACTTGGGTTCTAACCTGTTGCTG (site ACATGTACTCG)
0.182
GTATGCCCTTGGGTTCTAACCTGTTGCCT (site GTATGCCCTAG)
1.38
GAGGACTCTTGGGTTCTAACCTGTTGCCA (site GAGGACTCTAG)
1.46
GCACCCTCTTGGGTTCTAACCTGTTGCCT (site GCACACTCTAG)
0.0655
GGTCCCACTTGGGTTCTAACCTGTTGCCT (site GGTCCCACTAG)
0.943

---

experiment: recombinant UMI read abundance after kanamycin selection (control-corrected) (log10(CPM+1)); higher = more efficient recombination; extreme values may be limits of the assay; sequences stand for … in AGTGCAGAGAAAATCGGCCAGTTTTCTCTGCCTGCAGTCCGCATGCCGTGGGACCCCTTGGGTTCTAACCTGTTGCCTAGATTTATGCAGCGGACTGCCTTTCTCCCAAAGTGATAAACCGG…AGGTTGGTTTCACT; site = the 11-nt donor
Recorded recombinant UMI read abundance (log10) by entry
value kind: recombinant UMI read abundance (log10)

AGAGTATCATGGACCGGTTTTCCCGGTAATCCGTATTTGCC (site ACAGTATCTTG)
0
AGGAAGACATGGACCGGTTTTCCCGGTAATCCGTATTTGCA (site AGGACGACTTG)
0.36
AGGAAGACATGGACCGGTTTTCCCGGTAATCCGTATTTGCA (site AGGAATGCTTG)
0
CCTAACCCATGGACCGGTTTTCCCGGTAATCCGTATTTGAG (site CCTAACCCTCT)
0.00788
TCCGTCCCATGGACCGGTTTTCCCGGTAATCCGTATTTGCA (site TCCGTCCCTTG)
0
CGGATATCATGGACCGGTTTTCCCGGTAATCCGTATTTGCT (site CGGAAATCTAG)
0
GGTTGCCCATGGACCGGTTTTCCCGGTAATCCGTATTTGAT (site GTTTGCCCTAT)
0.0119
GCGGGCGCATGGACCGGTTTTCCCGGTAATCCGTATTTGAT (site GCGGGCGCTAT)
1.44
GCTCTATCATGGACCGGTTTTCCCGGTAATCCGTATTTGCT (site GCTCTATCTAG)
2.04

---

assay: recombinant UMI read abundance after kanamycin selection (control-corrected) (log10(CPM+1)); higher = more efficient recombination; extreme values may be limits of the assay; sequences stand for … in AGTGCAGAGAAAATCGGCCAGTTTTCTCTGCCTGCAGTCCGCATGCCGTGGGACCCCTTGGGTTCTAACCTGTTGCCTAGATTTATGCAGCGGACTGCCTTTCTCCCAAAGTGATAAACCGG…AGGTTGGTTTCACT; site = the 11-nt donor
Consider the following sequences and their measured recombinant UMI read abundance (log10) readings.
value kind: recombinant UMI read abundance (log10)

GTACGCCCATGGACCGGTTTTCCCGGTAATCCGTATTTGAT (site GTACGCCCTAT)
0.747
AGACAATCATGGACCGGTTTTCCCGGTAATCCGTATTTGTA (site AGACAATCTTA)
2.63
GAGCTCACATGGACCGGTTTTCCCGGTAATCCGTATTTGAC (site GAGCTCACTGT)
2.53
GCTAGTGCATGGACCGGTTTTCCCGGTAATCCGTATTTGCC (site GCTAGTGCTGG)
1.86
CTGCGACCATGGACCGGTTTTCCCGGTAATCCGTATTTGCT (site CTGCCACCTAG)
0.0046
CCTCAAGCATGGACCGGTTTTCCCGGTAATCCGTATTTGAT (site CCTTAAGCTAT)
0
CTATCATCATGGACCGGTTTTCCCGGTAATCCGTATTTGAT (site CTATCATCTAT)
0.00941
AGCTACGCATGGACCGGTTTTCCCGGTAATCCGTATTTGTC (site AGCTACGCTGA)
2.27
GTTGATGCATGGACCGGTTTTCCCGGTAATCCGTATTTGAC (site GTTGATGCTGT)
2.12
AACGAGCCATGGACCGGTTTTCCCGGTAATCCGTATTTGAA (site AACGAGCCTTT)
0.157
ACTAGTGCATGGACCGGTTTTCCCGGTAATCCGTATTTGGC (site ACTAGTGCTGC)
2.6
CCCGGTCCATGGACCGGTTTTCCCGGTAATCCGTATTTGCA (site CCCGGTACTTG)
0
CGCATATCATGGACCGGTTTTCCCGGTAATCCGTATTTGTC (site CACATATCTGA)
0
TACAATACATGGACCGGTTTTCCCGGTAATCCGTATTTGCA (site TAAAATACTTG)
0
CACTTGCCATGGACCGGTTTTCCCGGTAATCCGTATTTGGA (site CACTTGGCTTC)
0.0247
CGATTGGCATGGACCGGTTTTCCCGGTAATCCGTATTTGCT (site CGCTTGGCTAG)
0
GGGAAGCCATGGACCGGTTTTCCCGGTAATCCGTATTTGGG (site GAGAAGCCTCC)
0.00654
CAAGACACATGGACCGGTTTTCCCGGTAATCCGTATTTGGG (site CAAGACACTCC)
1.28
CATTCGCCATGGACCGGTTTTCCCGGTAATCCGTATTTGAG (site CATTCGCCTCT)
0.00436
GAAGTCTCATGGACCGGTTTTCCCGGTAATCCGTATTTGGT (site GAAGTCTCTAC)
2.53
GCTACGCCATGGACCGGTTTTCCCGGTAATCCGTATTTGTA (site GCCACGCCTTA)
0.0278
TGTTCCCCATGGACCGGTTTTCCCGGTAATCCGTATTTGAA (site TGTTCCCCTTC)
0.011
CAAGCACCATGGACCGGTTTTCCCGGTAATCCGTATTTGTG (site CAAGCACCTCA)
0.018
AAGCACTCATGGACCGGTTTTCCCGGTAATCCGTATTTGGG (site AAGCACACTCC)
0.0075
AACTATACATGGACCGGTTTTCCCGGTAATCCGTATTTGAC (site AGCTATACTGT)
0.797
GCAGTATCATGGACCGGTTTTCCCGGTAATCCGTATTTGGA (site ACAGTATCTTG)
0.785
CTACTAACATGGACCGGTTTTCCCGGTAATCCGTATTTGGT (site CTACTAACTAC)
0.461
GGTACGGCATGGACCGGTTTTCCCGGTAATCCGTATTTGTT (site GGTACGCCTAA)
0.0122
CGCAGACCATGGACCGGTTTTCCCGGTAATCCGTATTTGGG (site CGCAGACCTCC)
0.0135
CTAGGACCATGGACCGGTTTTCCCGGTAATCCGTATTTGTG (site CTAGGACCTCA)
0.00443
GCAAACCCATGGACCGGTTTTCCCGGTAATCCGTATTTGAT (site GCAAACCCTAT)
1.75
ACGTAGGCATGGACCGGTTTTCCCGGTAATCCGTATTTGGC (site ACGTAGGCTGC)
2.6
CGATGACCATGGACCGGTTTTCCCGGTAATCCGTATTTGGG (site CGAGGACCTCC)
0.0601
GAATGGCCATGGACCGGTTTTCCCGGTAATCCGTATTTGCT (site GAATGGCCTTG)
0
AGCGTTTCATGGACCGGTTTTCCCGGTAATCCGTATTTGAC (site AGCCTTTCTGT)
0
AGACATCCATGGACCGGTTTTCCCGGTAATCCGTATTTGAC (site ATACATCCTGT)
0
